The values you see were collected from patent US10040783B2.

test.summary: in vitro
condition.context: rat, C6G cells
value.type: CC50 at 48 h (µM)
Hi! Could you send only the number? It should be in µM, unit omitted.

smiles_code=COc1cc(C=CC(=O)NCCn2c(C)nc3ccccc32)cc(OC)c1OC measurement_units=µM meas_value=360

Now look at this entry.
stdin: Query: CC50 at 48 h; subject: COc1ccc(C=CC(=O)NCCn2c(C)cc3ccccc32)cc1OC
stdout: 397

====

Tested on: C6G cells
test.summary: CellTiter-Glo luminescent cell viability assay (cytotoxicity)
condition.context: read-out: CC50, half maximal cytotoxic concentration; C6G cells after 48 h incubation
Recorded CC50 values for a group of compounds are listed next.
I'd appreciate it if you wrote the number followed by its unit.

stdin: # value lookup — system C6G cells, readout CC50, item COc1cc(/C=C/C(=O)NCCN2CCCCC2C)cc(OC)c1OC (centres unmarked)
stdout: 316 µM

stdin: # value lookup — system C6G cells, readout CC50, item COc1ccc(/C=C/C(=O)NCCn2c(C(F)(F)F)cc3ccccc32)cc1OC
stdout: 209 µM

====

measured.target: EP2 receptor (Homo sapiens)
Sequence (P43116 whole entry): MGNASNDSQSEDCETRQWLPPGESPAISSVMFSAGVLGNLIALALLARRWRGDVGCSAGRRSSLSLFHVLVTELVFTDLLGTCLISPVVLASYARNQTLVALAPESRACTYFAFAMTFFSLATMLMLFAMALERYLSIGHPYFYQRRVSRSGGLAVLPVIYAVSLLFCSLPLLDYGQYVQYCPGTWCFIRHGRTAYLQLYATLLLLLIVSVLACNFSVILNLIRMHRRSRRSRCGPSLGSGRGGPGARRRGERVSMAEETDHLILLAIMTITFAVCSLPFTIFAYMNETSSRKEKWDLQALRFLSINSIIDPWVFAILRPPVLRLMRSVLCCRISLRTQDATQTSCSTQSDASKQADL
test.summary: Schild regression of PGE2-induced EP2 activation in C6G-EP2 cells
Assay type: cell-based
Set-up: expressed in transfected cells; host or cells: C6G-EP2 cells
condition.context: C6G-EP2 cells, PGE2 as agonist; read-out: KB (nM) EP2, from Schild regression analysis
Lab note: class by Kb, see lower range (below 5 nM), middle range (5 nM to below 40 nM), upper range (40 nM or more)

Reference set, count: 6
smiles_code=COc1ccc(C=CC(=O)NCCn2c(C)cc3cc(F)ccc32)cc1 category="upper range"
smiles_code=COc1cc(C=CC(=O)NCCCn2c(C)cc3ccccc32)cc(OC)c1OC category="upper range"
smiles_code=COc1ccc(/C=C/C(=O)NCCn2c(C(F)(F)F)cc3ccccc32)cc1OC category="upper range"
smiles_code=Cc1cc2ccccc2n1CCNC(=O)C=Cc1cc(F)c(F)c(F)c1 category="middle range"
smiles_code=COc1cc(C=CC(=O)NCCn2c(C)cc3cc(F)ccc32)cc(OC)c1OC category="lower range"
smiles_code=COc1ccc(C=CC(=O)NCCn2c(C)cc3ccccc32)cc1OC category="lower range"

stdin: Class for COc1ccc(/C=C/C(=O)NCCn2c(C)cc3ccccc32)cc1Cl ?
stdout: lower range

stdin: Class for COc1cc(OC)c(C=CC(=O)NCCn2c(C)cc3ccccc32)cc1Br ?
stdout: middle range

stdin: Class for COc1cc(C=CC(=O)NCCn2c(C)nc3ccccc32)cc(OC)c1OC ?
stdout: upper range

stdin: Class for CCOc1c(Br)cc(CCC(=O)NCCn2c(C)cc3ccccc32)cc1OC ?
stdout: lower range

====

measured.target: human DP1 receptors (Homo sapiens)
Construct: expressed in transfected cells
Sequence (Q13258 1-359): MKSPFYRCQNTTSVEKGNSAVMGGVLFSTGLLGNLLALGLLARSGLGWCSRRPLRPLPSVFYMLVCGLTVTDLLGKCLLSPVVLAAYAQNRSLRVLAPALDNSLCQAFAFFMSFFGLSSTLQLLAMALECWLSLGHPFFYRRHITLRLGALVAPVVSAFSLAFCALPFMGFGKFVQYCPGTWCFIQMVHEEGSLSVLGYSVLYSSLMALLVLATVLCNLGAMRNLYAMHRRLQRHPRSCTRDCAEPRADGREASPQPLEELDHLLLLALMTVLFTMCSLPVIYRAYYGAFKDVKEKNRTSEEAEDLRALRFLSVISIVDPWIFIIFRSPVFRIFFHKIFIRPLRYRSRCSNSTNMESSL
test.summary: DP1 assay: BW245C-induced cAMP, TR-FRET, in C6G cells expressing DP1
Type: cell-based
condition.context: agonist BW245C
The threshold is 700 nM. Values of Kb beneath it are tagged met; values meeting or exceeding it are tagged not met.

Reference set, count: 3
smiles_code=COc1cc(/C=C/C(=O)NCCc2c(C)[nH]c3ccccc23)cc(OC)c1OC category=met
smiles_code=CC(=O)Nc1ccc(C(=O)NCCn2c(C)cc3ccccc32)cc1 category="not met"
smiles_code=COc1ccc(C(=O)NCCn2c(C)cc3ccccc32)cc1OC category="not met"

stdin: Lab log: compare recorded Kb with 700 nM; is it strictly lower for COc1ccc(/C=C/C(=O)NCCc2c(C)[nH]c3ccccc23)cc1OC ?
stdout: met

stdin: Lab log: compare recorded Kb with 700 nM; is it strictly lower for Cc1cc(/C=C/C(=O)NCCn2c(C)cc3ccccc32)cc(C)c1F ?
stdout: not met
